Where do these numbers come from? They come from patent US20220324909A1.

target: ProLink tagged human APJ (Apelin Receptor) in CHO-K1 AGTRL1 β-Arrestin cells (human, UniProt P35414 1-380); experiment: cell-based or functional assay
Sequence (P35414 whole entry): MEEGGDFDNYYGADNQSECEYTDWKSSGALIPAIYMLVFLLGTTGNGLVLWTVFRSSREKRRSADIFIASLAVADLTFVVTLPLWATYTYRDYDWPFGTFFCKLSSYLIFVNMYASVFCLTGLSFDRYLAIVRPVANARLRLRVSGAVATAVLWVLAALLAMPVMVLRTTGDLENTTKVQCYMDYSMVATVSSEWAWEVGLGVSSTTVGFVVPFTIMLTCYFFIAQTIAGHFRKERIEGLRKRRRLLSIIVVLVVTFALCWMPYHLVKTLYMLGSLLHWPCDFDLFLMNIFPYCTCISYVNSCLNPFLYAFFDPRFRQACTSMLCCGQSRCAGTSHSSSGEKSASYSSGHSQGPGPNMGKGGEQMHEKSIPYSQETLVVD
Non-standard residues stand in square brackets, D forms with d. No end group written: not given here.
Recorded β-Arrestin recruitment, Percent of Apelin-13 Control Activity (10 µM peptide) for the following binders
OUTCOME_MEASURE: β-Arrestin recruitment, Percent of Apelin-13 Control Activity (10 µM peptide)

>>> print(df.to_string())
                                      binder            measured_result
 0                     RRMMGM [SEQ ID NO 55]   1 % of Apelin-13 control
 1  RREMVYQCLCG[dA] (cysteine pairing not given here) [SEQ ID NO 25]  -1 % of Apelin-13 control
 2           RMMGMVFQSLCG[dA] [SEQ ID NO 54]   1 % of Apelin-13 control
 3             RRMGYQCLEG[dA] [SEQ ID NO 28]  -1 % of Apelin-13 control
 4                   RMMGMVFQ [SEQ ID NO 51]   0 % of Apelin-13 control
 5          RRLLGLVFQSLEG[dA] [SEQ ID NO 41]   0 % of Apelin-13 control
 6                RRMMGMVFQSL [SEQ ID NO 60]   0 % of Apelin-13 control
 7            RREMVYQCLEG[dA] [SEQ ID NO 26]   0 % of Apelin-13 control
 8  RRMMGMVYQCLCG[dA] (cysteine pairing not given here) [SEQ ID NO 10]   3 % of Apelin-13 control
 9          RRMMGMVFQSLCG[dA] [SEQ ID NO 15]  40 % of Apelin-13 control
10                 RMMGMVFQSL [SEQ ID NO 53]   1 % of Apelin-13 control
11             RRMAYQCLEG[dA] [SEQ ID NO 27]  -1 % of Apelin-13 control
12          RRMMGMVFQSLSG[dA] [SEQ ID NO 17]  10 % of Apelin-13 control
13  RXLLGLVFQSLCGA ((AIB) aminoisobutyric acid at position 2; (dA) D-alanine at position 14) [SEQ ID NO 35]  17 % of Apelin-13 control
14  KRRMMGMVFQSLCGA ((PEG12) on the N-terminal K (position 1); (dA) D-alanine at position 15) [SEQ ID NO 36]  63 % of Apelin-13 control
